- targetDesc: Peroxisome proliferator-activated receptor gamma (Homo sapiens) (UniProt P37231)
- Sequence (P37231 whole entry, looked up): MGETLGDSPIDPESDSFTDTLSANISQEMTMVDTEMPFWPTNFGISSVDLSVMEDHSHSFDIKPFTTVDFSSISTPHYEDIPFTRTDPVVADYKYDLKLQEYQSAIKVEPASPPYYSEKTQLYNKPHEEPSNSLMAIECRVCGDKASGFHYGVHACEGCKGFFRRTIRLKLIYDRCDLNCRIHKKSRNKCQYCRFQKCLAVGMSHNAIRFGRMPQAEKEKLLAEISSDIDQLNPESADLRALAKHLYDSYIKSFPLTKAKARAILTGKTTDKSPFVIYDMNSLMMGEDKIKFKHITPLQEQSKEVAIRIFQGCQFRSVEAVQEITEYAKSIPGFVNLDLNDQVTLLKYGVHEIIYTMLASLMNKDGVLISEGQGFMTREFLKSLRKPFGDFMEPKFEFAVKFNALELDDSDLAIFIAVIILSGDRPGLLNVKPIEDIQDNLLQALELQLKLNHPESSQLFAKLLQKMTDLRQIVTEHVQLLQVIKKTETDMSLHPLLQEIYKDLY
- measurementProtocol: qHTS assay to identify small molecule antagonists of the peroxisome proliferator-activated receptor gamma (PPARg) signaling pathway (AID 743191); further: nearly all actives have a fitted effect of over 30% in size
- condition: HEK293H PPARg-UAS-bla, beta-lactamase ratio, antagonist, 17 h; series mostly up to 62.6 µM
Results filed as inconclusive are left out. Activity calls are given as the source filed them. The call rests on the fitted dose curve.
Allowed answers: active, inactive

Worked examples follow.
compound: OCCOCC#CCOCCO
qualitativeLabel: inactive
--
compound: Cc1c(C)c2c(c(C)c1OC(=O)CCC(=O)OCCO)CC[C@@](C)(CCC[C@H](C)CCC[C@H](C)CCCC(C)C)O2
qualitativeLabel: active
--
compound: O=C1Cc2cc(Cl)ccc2N1
qualitativeLabel: inactive
--
compound: Cc1cc(C)cc(N)c1
qualitativeLabel: inactive
--
compound: CC1CC(C)C(=O)C1=O (stereo not drawn)
qualitativeLabel: inactive
--
compound: OC1(c2ccccc2)CCNCC1
qualitativeLabel: inactive

In the following, a different compound is considered.
input: # outcome recorded in this test, key = `O=C(/C=C/c1ccccc1)OCCc1ccccc1`
output: inactive
